subjectOfTest: thrombin (human, UniProt P00734)
experimentalProtocol: primary screen, binary call; higher = more effect of the substance; call rule not given here
Set-up: screenings were carried out in duplicate in one independent experiment
assaySetup: 200 µM
Outcome (select one): True = active, False = inactive

IN: What classification did O=C(O)CC1CCC(=O)N1 (centres unmarked) end up with in this test?
OUT: False

IN: Any idea what this test logged for NC1CCc2ccccc21 (centres unmarked) ?
OUT: False

IN: Query: recorded result category for "O=C1NC2(CCCC2)Nc2ccccc21" in this test
OUT: False

IN: Field: outcome | Entry: "CC1(C)OC(=O)c2cc(Br)c(O)cc2O1"
OUT: False

IN: Answer briefly: the call reported for "O=C1CCN(c2ccncc2)CC1" in this assay.
OUT: False

IN: For "Cn1c(N)nc2ccccc21" , what call appears in the results of this test?
OUT: False

IN: # fetch the recorded call for "c1ccc(-c2ccncc2)cc1" here
OUT: False

IN: Each compound tested received a call. Report the one for Fc1ccc(CC2CCCNC2)cc1 (centres unmarked) .
OUT: False

IN: Record request — test call for "Nc1ccc(-c2ccccc2)cc1C(=O)O"
OUT: False

IN: Status in this test for "N#Cc1ccc2ncsc2c1" ?
OUT: False

IN: Hi, sorry to bother you, what did the test record for "Clc1ccc2nnnn2n1" ?
OUT: False

IN: Answer briefly: the call reported for "CC(=O)c1ccc2c(c1)CNCC2" in this assay.
OUT: False

IN: Check the results log: what was the call for "O=C(CN1CCCC1)c1ccccc1Cl" ?
OUT: False

IN: Which outcome was entered for the compound "c1ccc2sc(N3CCNCC3)nc2c1" in this test?
OUT: False

IN: // outcome(item) with item = "O=C(NC1CC1)c1ccccc1O"
OUT: False

IN: // return assay outcome for "O=C1CCCc2occc21"
OUT: False

IN: Returns: the outcome recorded for CC1C(=O)NC(=O)N1c1ccc(Cl)cc1 (centres unmarked) in this assay.
OUT: False

IN: # fetch the recorded call for "O=C(c1ccccc1)N1CCC(CO)CC1" here
OUT: False

IN: How was "N[C@H]1c2ccccc2C[C@H]1CO" classified in this test?
OUT: False

IN: GET /call?item= "CCCN1C(=O)CC(=O)NC1=S" returns the recorded outcome of this test.
OUT: False

IN: Call for entry "Cc1ccc(CCNc2ccccc2)cn1" :
OUT: False

IN: Test call, this compound: "CN(C)c1cc(CN)ccn1"
OUT: False

IN: Can you look up the reported call for "O=C1CC(CSc2ccc(Cl)cc2)=NN1" for me?
OUT: False

IN: What is the recorded call for this compound in the test? CC1CCc2sc(C(=O)O)cc2C1 (centres unmarked)
OUT: True

IN: Per the assay record, what outcome was assigned to "c1ccc2c(N3CCNCC3)ccnc2c1" ?
OUT: False

IN: Entry "COc1ccc(C2=CCNCC2)cc1" : call = ?
OUT: False

IN: Query: recorded result category for "N#CCCN1CCc2ccccc21" in this test
OUT: False

IN: Query: recorded result category for "Nc1ccc(SC(F)F)cc1" in this test
OUT: False

IN: Query: recorded result category for "CCn1cnc2ccccc21" in this test
OUT: False

IN: Returns: the outcome recorded for "O=C(O)c1ccc(CN2CCOCC2)cc1" in this assay.
OUT: False

IN: GET /call?item= "c1ccc(Nc2nncs2)cc1" returns the recorded outcome of this test.
OUT: False

IN: What was the test verdict on "C1=C[C@H]2O[C@@H]1c1ccccc12" ?
OUT: False

IN: For "Cc1nc(-c2ccccc2)cs1" , what call appears in the results of this test?
OUT: False

IN: Look up the recorded call for "O=C1NC(=O)/C(=C\c2cccs2)N1" in this test.
OUT: False

IN: What classification did "CC(=O)c1ccc2c(c1)CCCN2" end up with in this test?
OUT: False

IN: Check the results log: what was the call for "Fc1ccc2c(C3CCNCC3)c[nH]c2c1" ?
OUT: False

IN: // param item: "O=C(O)C1CCN(c2ncccn2)CC1" ; yields the recorded call
OUT: True

IN: Could you please tell me the result logged for "Oc1ccc(-n2cncn2)cc1" in this assay?
OUT: False

IN: I would be grateful if you could indicate the recorded call for "COc1ccc(CN2CCNCC2)cc1F" .
OUT: False

IN: Record lookup: outcome of this test for "Cc1cc(-c2ccccc2)n[nH]1" ?
OUT: False

IN: // return assay outcome for O=C(O)C1CCCN(C(=O)N2CCCC2)C1 (centres unmarked)
OUT: False

IN: Check the results log: what was the call for O=C1NC(=O)C2(CCc3ccccc32)N1 (centres unmarked) ?
OUT: False

IN: Hi team, can someone confirm the assay call for "COc1ccccc1C1CCNCC1" ?
OUT: False

IN: Which outcome was entered for the compound "Cc1cnc(C(F)(F)F)cn1" in this test?
OUT: False

* * *

subjectOfTest: thrombin (human)
experimentalProtocol: primary screen, binary call; higher = more effect of the substance
Parameters: screenings were carried out in duplicate in one independent experiment
assaySetup: 200 µM
Protocol: Protease inhibitory assays were performed in transparent microtiter plates in a final volume of 200 µL with the use of chromogenic substrates. The reaction rates in the absence and in the presence of the inhibitor were measured; screenings were carried out in duplicate in one independent experiment and Ki values were determined in triplicate in two independent experiments.
For each of the compounds below, state its Thrombin.

// Thrombin value for "O=C(O)c1cnc(-c2ccccc2)s1" : 1 (active)

Memo: "Oc1ccccc1N1CCCCC1" , reported Thrombin: 0 (inactive)

For reference, reported Thrombin for "CS(=O)(=O)Nc1ccc(C(=O)O)cc1" stands at 0 (inactive)

# Thrombin (compound: CC(CN)N1CCc2sccc2C1 (stereo not shown) ) is 0 (inactive)

The recorded Thrombin for entry "CN1CC(=O)NC1=O" equals 0 (inactive)

Documented Thrombin of "Nc1nnc(-c2cccs2)[nH]1" : 1 (active)

Recorded result, "Oc1cnc(-c2ccccc2)nc1" , Thrombin: 0 (inactive)

The value of Thrombin measured for the compound "O=c1[nH]ncc2c1oc1ccccc12" turned out to be 0 (inactive)

Please fill in: Thrombin reported for "O=C1CCC(=O)N(c2ccccc2)N1" = 0 (inactive)

According to the records, this compound "NCC1(c2ccccc2)CCOCC1" displays Thrombin of 0 (inactive)

Lab note: measured Thrombin of "Oc1ccc(C2CCNCC2)cc1" was 0 (inactive)

Entry under test: "COc1cccc(NC2=NCCCCC2)c1" . Its Thrombin was 0 (inactive)

Per the record, "CCc1ccc(NC2=NCCCS2)cc1" has Thrombin of 0 (inactive)

Short answer for "COC(=O)c1c(C)nc(C2CC2)[nH]c1=O" : Thrombin was 0 (inactive)

Consider "CCc1nccn1CC(=O)O" . Its measured Thrombin is 0 (inactive)

Documented Thrombin of "CS(=O)(=O)c1ccc(OC(F)(F)F)cc1" : 0 (inactive)

* * *

subjectOfTest: Factor Xa (bovine, UniProt P00743)
Sequence (P00743 41-180 limits assumed): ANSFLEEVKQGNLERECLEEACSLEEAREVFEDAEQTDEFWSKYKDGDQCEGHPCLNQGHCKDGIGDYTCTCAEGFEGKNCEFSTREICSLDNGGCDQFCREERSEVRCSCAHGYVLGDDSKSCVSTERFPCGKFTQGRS
Sequence (P00743 234-492 limits assumed): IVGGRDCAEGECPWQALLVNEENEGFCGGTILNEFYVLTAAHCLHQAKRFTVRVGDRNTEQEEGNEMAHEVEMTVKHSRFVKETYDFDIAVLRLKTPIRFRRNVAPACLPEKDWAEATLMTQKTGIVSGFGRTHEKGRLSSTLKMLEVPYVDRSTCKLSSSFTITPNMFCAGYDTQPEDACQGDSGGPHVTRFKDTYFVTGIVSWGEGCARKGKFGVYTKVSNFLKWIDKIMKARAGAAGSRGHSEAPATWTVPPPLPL
experimentalProtocol: primary screen, binary call; higher = more effect of the substance; call rule not given here
Parameters: screenings were carried out in duplicate in one independent experiment
assaySetup: 200 µM
I would appreciate it if you answered using one of these outcomes: 1.0 for active, 0.0 for inactive

IN: Which outcome was assigned to "Cn1nc(C(F)(F)F)cc1O" in this test?
OUT: 0.0

IN: What is the recorded call for this compound in the test? "Oc1nnc(-c2ccccc2)o1"
OUT: 0.0

IN: Assay result, entry "CS(=O)(=O)c1ccc(OC(F)(F)F)cc1" — outcome?
OUT: 0.0

IN: Lab log entry: "N#CCCN1CCc2ccccc21" — outcome as called in the assay?
OUT: 0.0

IN: Assay outcome for O=C(O)CC1CCC(=O)N1 (stereo not drawn) : what was it?
OUT: 0.0

IN: Per the records of this test, what outcome belongs to "c1ccc2c(N3CCNCC3)ccnc2c1" ?
OUT: 0.0

IN: Please share the test call associated with "N#Cc1ccc(C(=O)N2CCOCC2)cc1" .
OUT: 0.0

IN: Lab log entry: "O=C1CCN(c2ccccn2)CC1" — outcome as called in the assay?
OUT: 0.0

IN: Please state the recorded outcome for this compound: "O=c1ccc2c([nH]1)CCCC2"
OUT: 0.0

IN: Look up the recorded call for "O=C(c1ccccc1)N1CCC(CO)CC1" in this test.
OUT: 0.0

IN: Any idea what this test logged for "CCc1nccn1CC(=O)O" ?
OUT: 0.0

IN: Per the records of this test, what outcome belongs to "Cn1c(N)nc2ccccc21" ?
OUT: 1.0

IN: Per the assay record, what outcome was assigned to "COc1ccc(CN2CCNCC2)cc1F" ?
OUT: 0.0

IN: For this compound, state the assay outcome: "COC(=O)c1c(C)nc(C2CC2)[nH]c1=O"
OUT: 0.0

IN: Test call, this compound: "O=C(O)c1cnc(-c2ccccc2)s1"
OUT: 0.0
